biological target: SMARCA4 (Homo sapiens, UniProt P51532); construct: SMARCA2/SMARCA4 protein degradation selectivity in MV4-11 cells; endogenous in cells; host or cells: MV4-11; experiment: SMARCA4 Western blot degradation in MV4-11 cells; type: cell-based; settings: MV4-11 cells, 24 h; read-out: SMARCA4 MSD MV411 degradation 24 h: Mean external-Abs DC50
Sequence (P51532 whole entry): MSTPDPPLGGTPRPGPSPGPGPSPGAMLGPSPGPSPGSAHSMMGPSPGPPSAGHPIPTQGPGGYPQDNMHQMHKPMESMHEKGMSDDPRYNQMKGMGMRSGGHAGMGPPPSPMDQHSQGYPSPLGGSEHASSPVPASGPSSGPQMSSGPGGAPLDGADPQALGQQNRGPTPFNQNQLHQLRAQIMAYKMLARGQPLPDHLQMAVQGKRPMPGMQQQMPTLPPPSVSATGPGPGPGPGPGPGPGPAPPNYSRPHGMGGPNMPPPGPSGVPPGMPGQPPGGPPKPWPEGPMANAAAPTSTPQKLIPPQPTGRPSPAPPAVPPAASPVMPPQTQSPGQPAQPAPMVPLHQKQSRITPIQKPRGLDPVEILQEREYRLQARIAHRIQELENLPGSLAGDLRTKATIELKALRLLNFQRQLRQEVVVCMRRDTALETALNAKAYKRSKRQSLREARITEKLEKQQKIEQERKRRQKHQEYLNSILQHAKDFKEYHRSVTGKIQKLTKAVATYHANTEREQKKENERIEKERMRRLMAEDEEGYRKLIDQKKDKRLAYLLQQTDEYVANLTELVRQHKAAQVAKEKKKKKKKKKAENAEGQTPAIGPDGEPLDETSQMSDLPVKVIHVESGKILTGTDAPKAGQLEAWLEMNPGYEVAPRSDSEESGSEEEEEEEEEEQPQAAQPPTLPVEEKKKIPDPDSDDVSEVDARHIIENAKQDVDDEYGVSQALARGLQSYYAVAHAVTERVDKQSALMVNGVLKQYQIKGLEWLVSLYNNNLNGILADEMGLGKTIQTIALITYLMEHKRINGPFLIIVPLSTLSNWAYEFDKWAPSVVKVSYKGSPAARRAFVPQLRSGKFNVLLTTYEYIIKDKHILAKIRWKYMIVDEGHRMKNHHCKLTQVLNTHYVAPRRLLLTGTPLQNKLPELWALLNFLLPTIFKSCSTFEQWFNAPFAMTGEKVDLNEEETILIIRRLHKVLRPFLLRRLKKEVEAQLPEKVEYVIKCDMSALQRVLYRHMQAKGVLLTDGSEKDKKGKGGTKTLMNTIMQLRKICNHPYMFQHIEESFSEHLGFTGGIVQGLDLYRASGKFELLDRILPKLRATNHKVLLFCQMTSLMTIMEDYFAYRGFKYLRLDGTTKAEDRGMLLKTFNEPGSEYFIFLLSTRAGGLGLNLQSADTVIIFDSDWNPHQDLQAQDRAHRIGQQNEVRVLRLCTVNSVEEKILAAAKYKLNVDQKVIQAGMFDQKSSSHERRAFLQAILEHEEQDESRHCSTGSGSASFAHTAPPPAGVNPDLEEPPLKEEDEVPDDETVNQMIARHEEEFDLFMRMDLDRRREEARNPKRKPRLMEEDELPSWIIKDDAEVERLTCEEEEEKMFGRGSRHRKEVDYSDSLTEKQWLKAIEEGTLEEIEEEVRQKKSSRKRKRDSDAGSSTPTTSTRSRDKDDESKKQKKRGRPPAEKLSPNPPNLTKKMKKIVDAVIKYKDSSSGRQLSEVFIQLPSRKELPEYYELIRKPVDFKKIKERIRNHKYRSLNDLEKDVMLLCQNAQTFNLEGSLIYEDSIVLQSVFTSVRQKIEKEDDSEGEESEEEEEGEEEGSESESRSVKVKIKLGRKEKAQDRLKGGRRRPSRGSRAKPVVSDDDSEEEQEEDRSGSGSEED
readoutKind: DC50

# DC50 lookup, item C#Cc1ccc(CNC(=O)[C@@H]2C[C@@H](O)CN2C(=O)[C@H](NC(=O)N2CC3(CC(N4CCC(c5cnc(N6CCc7[nH]c8nnc(-c9ccccc9O)cc8c7[C@H]6C)nc5)CC4)C3)C2)C(C)(C)CCN2CCN[C@@H](C(=O)O)C2)cc1 [I-341] > 100 nM

Sample C#Cc1ccc([C@H](C)NC(=O)[C@@H]2C[C@@H](O)CN2C(=O)[C@@H](NC(=O)N2CC3(CC(N4CCC(c5cnc(N6CCc7[nH]c8nnc(-c9ccccc9O)cc8c7[C@H]6C)nc5)CC4)C3)C2)C(C)(C)CCO)cc1 [I-259] — what was its DC50? > 100 nM

Requested read-out: DC50. Entry: C#Cc1ccc([C@H](C)NC(=O)[C@@H]2C[C@@H](O)CN2C(=O)[C@@H](NC(=O)N2CC3(CC(N4CCC(c5cnc(N6CCc7[nH]c8nnc(-c9ccccc9O)cc8c7[C@H]6C)nc5)CC4)C3)C2)C(C)(C)C)cc1 [I-151] > 100 nM

Attention now shifts to the item below.
Request the reported DC50 associated with C#Cc1ccc(CNC(=O)[C@@H]2C[C@@H](O)CN2C(=O)[C@@H](NC(=O)N2CC3(CC(N4CCC(c5cnc(N6CCc7[nH]c8nnc(-c9ccccc9O)cc8c7[C@H]6C)nc5)CC4)C3)C2)C(C)(C)CCO)cc1 [I-288] 10 to 100 nM
